Test system: HAP1 MTAP-deleted cell line
Test: SDMA in-cell western assay, HAP1 MTAP-deleted
Assay type: cell-based
Conditions: Homo sapiens, HAP1 MTAP-deleted (MTAP-null) cell line
# Lookup of reported IC50 keyed by entry

q: Form field: reported IC50 of CC(=O)N1CCC(Nc2cc(C(=O)NC[C@@H](O)[C@@H]3Cc4ccc(OCc5ocnc5C)cc4CN3)cc(N3CCCCC3)c2)CC1 [Compound 60]
a: 1000 to 10000 nM

q: Now consider Cc1ncoc1COc1cc2c(cc1F)C[C@@H]([C@H](O)CNC(=O)c1ccnc(NC3CCC3)c1)NC2 [Compound 65] .
a: < 1000 nM

====

# Lookup of reported IC50 keyed by entry
Test system: HAP1 MTAP-deleted cell line
Assay: SDMA in-cell western assay, HAP1 MTAP-deleted
Assay type: cell-based
Conditions: Homo sapiens, HAP1 MTAP-deleted (MTAP-null) cell line

> print(dat)
                                   compound    endpoint.value
1  COCCN(C)c1nc(NC2CN(C(C)=O)C2)cc(C(=O)NC[C@@H](O)[C@@H]2Cc3ccc(OCc4ocnc4C)cc3CN2)n1 [Compound 82]         < 1000 nM
2  COc1ccc(C(=O)N2CCc3cc(C(=O)NC[C@@H](O)[C@@H]4Cc5ccc(OCc6cnco6)cc5CN4)ccc3C2)cc1 [Compound 74]         < 1000 nM
3  Cn1nccc1COc1ccc2c(c1)CN[C@H]([C@H](O)CNC(=O)c1ccc(C(=O)N3CCOCC3)cc1)C2 [Compound 2]        ≥ 10000 nM
4  CC(=O)N1CCC(Nc2cc(C(=O)NC[C@@H](O)[C@@H]3Cc4ccc(OCc5ocnc5C)cc4CN3)ccn2)CC1 [Compound 44]  1000 to 10000 nM

q: Form field: reported IC50 of COCCN(C)c1cc(C(=O)NC[C@@H](O)[C@@H]2Cc3ccc(OCc4ocnc4C)cc3CN2)cc(NC2CCN(C(C)=O)CC2)n1 [Compound 66]
a: < 1000 nM

q: Now consider COc1cnc(NC2CCC2)cc1C(=O)NC[C@@H](O)[C@@H]1Cc2ccc(OCc3ocnc3C)cc2CN1 [Compound 36] .
a: < 1000 nM

q: Now consider Cc1ncoc1COc1ccc2c(c1)CN[C@H]([C@H](O)CNC(=O)c1cc(NC3CCC3)nc(N3CCCCC3)n1)C2 [Compound 49] .
a: < 1000 nM

q: Now consider Cc1ncoc1COc1ccc2c(c1)CN[C@H]([C@H](O)CNC(=O)c1ccnc(NC3CC4(CCC4)C3)c1)C2 [Compound 46] .
a: < 1000 nM

q: Now consider Cc1ncoc1COc1ccc2c(c1)CN[C@H]([C@H](O)CNC(=O)c1cc(NC3CCC3)nc(N3CCN(C)CC3)c1)C2 [Compound 52] .
a: < 1000 nM

q: Now consider CC(=O)N1CC(Nc2cc(C(=O)NC[C@@H](O)[C@@H]3Cc4ccc(OCc5ocnc5C)cc4CN3)nc(N3CCN(C(C)C)CC3)n2)C1 [Compound 47] .
a: 1000 to 10000 nM

q: Now consider COc1ccc(C(=O)N2CCc3cc(C(=O)NC[C@@H](O)[C@@H]4Cc5ccc(OCc6ocnc6C)cc5CN4)ccc3C2)cc1 [Compound 21] .
a: < 1000 nM

q: Now consider Cc1ncoc1COc1ccc2c(c1)CN[C@H]([C@H](O)CNC(=O)c1cc(NC3CCC3)cc(N3CCCCC3)c1)C2 [Compound 58] .
a: < 1000 nM

q: Now consider CC(=O)N1CCC(Nc2cc(C(=O)NC[C@@H](O)[C@@H]3Cc4ccc(OCc5ocnc5C)cc4CN3)cc(N3CCN(C)CC3)n2)CC1 [Compound 54] .
a: 1000 to 10000 nM

====

Target: PRMT5 (Homo sapiens)
Construct: purchased Viva (custom protein)
Test: PRMT5 inhibition assay with no cofactor
Type: biochemical
Settings: against PRMT5 with no cofactor; read-out: No Co-factor IC50
pIC50: −log10 of the molar value.
# Lookup of reported pIC50 keyed by entry

Some solved cases for reference:
> print(dat)
                                 cpd.smiles  measured.endpoint  endpoint.value
1  Cc1ncoc1COc1ccc2c(c1)CN[C@H]([C@H](O)CNC(=O)c1cccc(NC3CCC3)c1)C2              pIC50    6.30 to 7.30
2  CCOc1cc(C(=O)N2C3CCC2COC3)ccc1C(=O)NC[C@@H](O)[C@@H]1Cc2ccc(OCc3ccncc3)cc2CN1              pIC50          ≤ 5.30
3  Cc1ncoc1COc1ccc2c(c1)CN[C@H]([C@H](O)CNC(=O)c1cc(NC3CCC3)nc(N3CCN(C)CC3)c1)C2              pIC50    6.30 to 7.30

q: Form field: reported pIC50 of Cc1ncoc1COc1ccc2c(c1)CN[C@H]([C@H](O)CNC(=O)c1cc(NC3CCC3)nc(N3CCN(C(C)C)CC3)n1)C2
a: 6.30 to 7.30

q: Now consider Cc1ncoc1COc1ccc2c(c1)CN[C@H]([C@H](O)CNC(=O)c1ccc(C(=O)N3[C@@H]4CCC[C@H]3COC4)cc1)C2 .
a: 6.30 to 7.30

q: Now consider CCN(C)c1cc(C(=O)NC[C@@H](O)[C@@H]2Cc3ccc(OCc4ocnc4C)cc3CN2)cc(NC2CCC2)n1 .
a: 6.30 to 7.30

q: Now consider CC(=O)N1CCC(Nc2cc(C(=O)NC[C@@H](O)[C@@H]3Cc4ccc(OCc5ocnc5C)cc4CN3)nc(N3CCCC3)n2)CC1 .
a: 6.30 to 7.30

q: Now consider CC(=O)N1CC(Nc2cc(C(=O)NC[C@@H](O)[C@@H]3Cc4ccc(OCc5ocnc5C)cc4CN3)nc(N3CC4CC(C4)C3)n2)C1 .
a: 6.30 to 7.30

q: Now consider COc1ccc(C(=O)N2CCc3cc(C(=O)NC[C@@H](O)[C@@H]4Cc5ccc(OCc6ccnn6C)cc5CN4)ccc3C2)cc1 .
a: 5.30 to 6.30

q: Now consider Cc1ncoc1COc1ccc2c(c1)CN[C@H]([C@H](O)CNC(=O)c1cc(NC3CCC3)ncn1)C2 .
a: 5.30 to 6.30

q: Now consider Cc1ncoc1COc1ccc2c(c1)CN[C@H]([C@H](O)CNC(=O)c1cc(NC3CCC3)ncc1F)C2 .
a: 5.30 to 6.30

q: Now consider Cc1ncoc1COc1ccc2c(c1)CN[C@H]([C@H](O)CNC(=O)c1cc(NC3CCC3)nc(C3CCN(C(C)C)CC3)c1)C2 .
a: 6.30 to 7.30

q: Now consider Cc1ncoc1COc1ccc2c(c1)CN[C@H]([C@H](O)CNC(=O)c1cc(NC3CCC3)cc(N3CCCCC3)c1)C2 .
a: 6.30 to 7.30

q: Now consider CC(=O)N1CC(Nc2cc(C(=O)NC[C@@H](O)[C@@H]3Cc4ccc(OCc5ocnc5C)cc4CN3)cc(N3CCCCC3)c2)C1 .
a: 6.30 to 7.30

q: Now consider CCOc1cc(C(=O)N2C3CCC2COC3)ccc1C(=O)NC[C@@H](O)[C@@H]1Cc2ccc(OCc3cnco3)cc2CN1 .
a: 5.30 to 6.30

q: Now consider CCOc1cc(C(=O)N2[C@@H]3CCC[C@H]2COC3)ccc1C(=O)NC[C@@H](O)[C@@H]1Cc2ccc(OCc3ccnn3C)cc2CN1 .
a: 5.30 to 6.30

q: Now consider CC(=O)N1CCC(Nc2cc(C(=O)NC[C@@H](O)[C@@H]3Cc4ccc(OCc5ocnc5C)cc4CN3)cc(N3CCCCC3)n2)CC1 .
a: 6.30 to 7.30

====

Target: PRMT5 (Homo sapiens, UniProt O14744)
Construct: purchased Viva (custom protein)
Sequence (O14744 whole entry): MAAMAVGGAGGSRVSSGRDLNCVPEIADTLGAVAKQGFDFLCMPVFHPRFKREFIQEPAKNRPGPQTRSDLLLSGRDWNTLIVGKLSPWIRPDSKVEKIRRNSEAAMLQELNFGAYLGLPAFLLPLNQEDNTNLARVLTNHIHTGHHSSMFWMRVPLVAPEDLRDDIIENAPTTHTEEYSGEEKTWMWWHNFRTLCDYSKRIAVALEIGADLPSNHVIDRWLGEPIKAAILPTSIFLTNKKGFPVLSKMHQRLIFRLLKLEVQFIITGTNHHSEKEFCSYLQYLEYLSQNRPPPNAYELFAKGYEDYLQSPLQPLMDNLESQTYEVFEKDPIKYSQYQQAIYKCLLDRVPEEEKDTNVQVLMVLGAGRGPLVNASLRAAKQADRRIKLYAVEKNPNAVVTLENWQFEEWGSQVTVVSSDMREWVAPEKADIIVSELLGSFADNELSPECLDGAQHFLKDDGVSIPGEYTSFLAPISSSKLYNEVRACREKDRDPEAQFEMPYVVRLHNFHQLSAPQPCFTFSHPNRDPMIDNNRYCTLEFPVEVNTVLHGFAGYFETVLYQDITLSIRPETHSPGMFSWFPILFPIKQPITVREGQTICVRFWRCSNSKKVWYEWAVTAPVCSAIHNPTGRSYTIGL
Sequence (Q9BQA1 whole entry partner): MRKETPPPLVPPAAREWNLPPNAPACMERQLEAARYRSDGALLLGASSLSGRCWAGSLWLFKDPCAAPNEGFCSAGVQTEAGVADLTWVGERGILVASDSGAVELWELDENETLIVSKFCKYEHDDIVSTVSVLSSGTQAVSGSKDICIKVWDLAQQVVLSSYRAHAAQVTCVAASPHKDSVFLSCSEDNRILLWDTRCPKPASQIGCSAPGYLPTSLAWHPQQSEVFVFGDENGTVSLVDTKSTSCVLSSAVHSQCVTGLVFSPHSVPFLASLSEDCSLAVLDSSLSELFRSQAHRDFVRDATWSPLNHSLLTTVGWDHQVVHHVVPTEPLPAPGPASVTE
Experiment: PRMT5 inhibition assay with no cofactor
Type: biochemical
Conditions: against PRMT5 with no cofactor; read-out: No Co-factor IC50
# Lookup of reported IC50 keyed by entry

> print(dat)
                                   compound  measured.endpoint  endpoint.value
1  Cc1ncoc1COc1ccc2c(c1)CN[C@H]([C@H](O)CNC(=O)c1cc(NC3CCC3)nc(N3CCN(C(C)C)CC3)c1)C2 [Compound 30]               IC50    50 to 500 nM
2  COCCN(C)c1cc(C(=O)NC[C@@H](O)[C@@H]2Cc3ccc(OCc4ocnc4C)cc3CN2)cc(NC2CCC2)n1 [Compound 33]               IC50    50 to 500 nM
3  COCCN(C)c1nc(NC2COC2)cc(C(=O)NC[C@@H](O)[C@@H]2Cc3ccc(OCc4ocnc4C)cc3CN2)n1 [Compound 37]               IC50       ≥ 5000 nM

q: Form field: reported IC50 of COc1ccc(C(=O)N2CCc3cc(C(=O)NC[C@@H](O)[C@@H]4Cc5ccc(OCc6ocnc6C)cc5CN4)ccc3C2)cc1 [Compound 21]
a: 50 to 500 nM

q: Now consider CC(=O)N1CC(Nc2cc(C(=O)NCC[C@@H]3Cc4ccc(OCc5ocnc5C)cc4CN3)nc(N3CCCCC3)n2)C1 (single isomer, unassigned) [85**] .
a: 500 to 5000 nM
